assay: Human HepG2 cell viability assay in 384 well format; assay type: toxicity, cell-based; set-up: dose 125 nL, time 70.5 hour; concentration not given beside the values; settings: HepG2 cells, read-out: Inhibition
MEASURED PARAMETER: cytotoxicity at 70.5 h (%)
Quick note: give the figure in %, leave out the unit.

cytotoxicity at 70.5 h for `CS(=O)(=O)c1ccc(NC(=O)N2CCc3sccc3C2)cn1` ?
46.4

cytotoxicity at 70.5 h for `CN(Cc1ccoc1)C(=O)Cn1ncc(N(C)C)cc1=O` ?
9.67

cytotoxicity at 70.5 h for `CN(Cc1ccccc1CN1CCCC1)c1ncnc2[nH]ccc12` ?
-4.3

cytotoxicity at 70.5 h for CC(C)OCCCNC(=O)C1CCCN(c2ccc3nncn3n2)C1 (centres undefined) ?
-9.82

cytotoxicity at 70.5 h for `CN(C)CC(=O)N1C[C@@H]2CC[C@H](Oc3ccccc3)[C@@H]2C1` ?
-0.0251

cytotoxicity at 70.5 h for `O=C(c1cccnc1-n1cncn1)N1CCN(C2CCCC2)CC1` ?
-5.59

cytotoxicity at 70.5 h for Cc1nn2c(N3CCCC(C(N)=O)C3)cc(-c3ccccc3)nc2c1C (centres undefined) ?
-3.49

cytotoxicity at 70.5 h for CCc1nc(C2CCCN2C(=O)CCc2ccc3c(c2)OCO3)no1 (centres undefined) ?
-24.9

cytotoxicity at 70.5 h for O=C(NCC1CCCO1)N1CCN(Cc2ccc3c(c2)CCO3)CC1 (centres undefined) ?
-9.76

cytotoxicity at 70.5 h for `CCn1nc(CC(C)C)cc1C(=O)N1CCC2(CC1)[C@H](O)C[C@@H]2O` ?
1.5

cytotoxicity at 70.5 h for `COCC1CCN(CCCc2cccc(OC)c2)CC1` ?
30.7

cytotoxicity at 70.5 h for CC(=O)N1CCC(C(=O)NC2CC(C)(C)Oc3cc(C)ccc32)CC1 (centres undefined) ?
12.8

cytotoxicity at 70.5 h for `O=C(NCCCOc1cccnc1)c1cn(Cc2ccccc2F)nn1` ?
-12.2

cytotoxicity at 70.5 h for `COc1cccc2ccc(CN3CCN(c4ncccn4)CC3)nc12` ?
-5.87

cytotoxicity at 70.5 h for `Cc1noc([C@@]23CCO[C@@H]2CCN(C(=O)c2cc(C)[nH]c2C)C3)n1` ?
-2.6

cytotoxicity at 70.5 h for `Cc1[nH]c(C2(N)CCCCC2)nc(=O)c1C` ?
-4.13

cytotoxicity at 70.5 h for O=c1[nH]c2c(c(=O)n1C1CCCCC1)CCC2Nc1ccc(Cl)cc1 (centres undefined) ?
-12.5

cytotoxicity at 70.5 h for `CN(Cc1ccc(F)cc1C#N)CC(F)(F)F` ?
17.4

cytotoxicity at 70.5 h for `Cc1nnc(C2CCN(C(=O)c3ccc(-n4cccc4)cc3)CC2)s1` ?
28

cytotoxicity at 70.5 h for CCN1CCN2CCCN(S(=O)(=O)c3cccc(F)c3)C2C1=O (centres undefined) ?
-8.84

cytotoxicity at 70.5 h for `COC(=O)NCC(=O)NCc1nn(-c2ccccc2)c2c1CCC2` ?
-4.34

cytotoxicity at 70.5 h for CCn1cc(S(=O)(=O)N2CCCC3(CC=CNC3=O)C2)c(C)n1 (centres undefined) ?
-1.52

cytotoxicity at 70.5 h for `CN(C)C(=O)c1cnc2n1CCN(Cc1ccncc1)C2` ?
19.9

cytotoxicity at 70.5 h for CNC(=O)CCc1cc(C2CCCCN2C)nc(C)n1 (centres undefined) ?
-7.9

###

assay: Human HepG2 cell viability assay in 384 well format; type: toxicity, cell-based; set-up: dose 125 nL, time 70.5 hour; concentration not given beside the values; conditions: HepG2 cells, read-out: Inhibition
Please go through the items and note down their cytotoxicity at 70.5 h.
Quick note: give the figure in %, leave out the unit.

cytotoxicity at 70.5 h for `CN(C)C1CCN(C(=O)CCc2cc(Br)cs2)CC1` ?
-0.796

cytotoxicity at 70.5 h for `Cc1ccc(S(=O)(=O)N2C[C@@H]3CCN[C@@H]3C2)cc1` ?
-4.81

cytotoxicity at 70.5 h for `COc1ccc2nc(C[C@@H]3C[C@@H](C(C)C)[C@H](CN(C)C)C=C3C)[nH]c2n1` ?
-3.85

cytotoxicity at 70.5 h for `CCC(=O)Nc1nnc(CCOc2ccc(OC)cc2)s1` ?
3.07

cytotoxicity at 70.5 h for Cn1cc(CC2CCN(C(=O)NCc3cccc(C(N)=O)c3)C2)cn1 (stereo unspecified) ?
-13.1

cytotoxicity at 70.5 h for `CC(=O)Nc1ccc2nc(-c3nccn3CCCN(C)C)ccc2c1` ?
-8.35

cytotoxicity at 70.5 h for `O=C(NCCc1ccc(Cl)s1)NCc1nnc2n1CCCC2` ?
-12.9

cytotoxicity at 70.5 h for O=C(CCc1ccccc1)N1CCCCC1Cn1cccn1 (stereo unspecified) ?
11.8

cytotoxicity at 70.5 h for `O=C(N[C@H]1CN2CCC1CC2)c1cc(Cn2cnc3ccccc32)[nH]n1` ?
-5.02

cytotoxicity at 70.5 h for `CS(=O)(=O)N1C[C@H]2CNC[C@@]2(C(=O)NCCOc2ccccc2)C1` ?
-1.07

cytotoxicity at 70.5 h for `Cc1nn(CCC#N)c(C)c1CCC(=O)N(C(C)C)C1CC1` ?
-10.9

###

experiment: Human HepG2 cell viability assay in 384 well format; format: toxicity, cell-based; parameters: dose 125 nL, time 70.5 hour; concentration not given beside the values; conditions: HepG2 cells, read-out: Inhibition
Please go through the items and note down their cytotoxicity at 70.5 h.
Quick note: give the figure in %, leave out the unit.

cytotoxicity at 70.5 h for `CCOC(=O)c1cnn(-c2cc(Oc3ccccc3C)ncn2)c1N` ?
23.9

cytotoxicity at 70.5 h for COCC1CC2(CCN(Cc3cccnc3)CC2)CN1C(C)C (configuration not stated) ?
-7.91

cytotoxicity at 70.5 h for `CCn1cnnc1C1CCN(C(=O)COCCc2ccccc2)CC1` ?
-3.71

cytotoxicity at 70.5 h for CC(C)NCC1OCCc2cn(C)nc21 (configuration not stated) ?
-6.64

cytotoxicity at 70.5 h for CC(C)CCC(=O)N1CCCC1c1nnc2n1CCCCC2 (configuration not stated) ?
-6.64

cytotoxicity at 70.5 h for `CC(C)c1nn(C)cc1CNCc1ccnc(N(C)C)c1` ?
-7.83

cytotoxicity at 70.5 h for `O=C(NCCO)c1coc(CN2CCN(c3ccccc3F)CC2)n1` ?
-5.22

cytotoxicity at 70.5 h for `CN(C)c1ccc(CNCc2ccc(N3CCOCC3)cc2)cn1` ?
-9.01

cytotoxicity at 70.5 h for `Cn1cc(NC(=O)c2ccccn2)cc(Br)c1=O` ?
-4.48

cytotoxicity at 70.5 h for CCCc1nnc(N2CCCC(c3nnc(Cn4ccnc4)n3C)C2)s1 (configuration not stated) ?
-2.6

cytotoxicity at 70.5 h for `O=C(CCNc1ncccn1)N1CCCN(c2nccs2)CC1` ?
15.2

cytotoxicity at 70.5 h for CN(Cc1nc(CC2CC2)no1)CC1COc2ccccc2O1 (configuration not stated) ?
-3.03

###

Please go through the items and note down their cytotoxicity at 70.5 h.
assay: Human HepG2 cell viability assay in 384 well format; type: toxicity, cell-based; parameters: dose 125 nL, time 70.5 hour; concentration not given beside the values; settings: HepG2 cells, read-out: Inhibition
Quick note: give the figure in %, leave out the unit.

cytotoxicity at 70.5 h for Cc1ccc(CN2CCCC3(CCN(S(C)(=O)=O)C3)C2)o1 (stereo not given) ?
-10.2

cytotoxicity at 70.5 h for Cc1cc(Oc2ccccc2C)nc(C2CCCN2)n1 (stereo not given) ?
9.24

cytotoxicity at 70.5 h for CN1CC(C(=O)NC2(c3ccc(Cl)cc3)CCOCC2)CC1=O (stereo not given) ?
2.23

cytotoxicity at 70.5 h for CN(C)C(=O)c1sc2ncccc2c1C1CNCCO1 (stereo not given) ?
-6.3

cytotoxicity at 70.5 h for Cc1cnn(CC(C)NCc2ccc(S(C)(=O)=O)cc2)c1 (stereo not given) ?
-1.78

cytotoxicity at 70.5 h for `CCN(CC)C(=O)Cn1nc(C(C)C)c2cnn(C(C)(C)C)c2c1=O` ?
13.7

cytotoxicity at 70.5 h for `Cc1cc(CNCC2(O)CCOCC2)ccc1Br` ?
4.13

cytotoxicity at 70.5 h for `O=C(CCc1cc(F)ccc1F)NS(=O)(=O)c1ccc2c(c1)OCCO2` ?
0.522

cytotoxicity at 70.5 h for `O=C(CSc1ccccc1F)NS(=O)(=O)c1ccc2c(c1)OCCO2` ?
-0.308

cytotoxicity at 70.5 h for Cc1nc(Nc2ncccn2)cc(C2CCCN2CC(C)C)n1 (stereo not given) ?
43.1

cytotoxicity at 70.5 h for CCc1noc(CNc2ccc(C(=O)N3CCCC(C)C3)cc2C)n1 (stereo not given) ?
-10.5

cytotoxicity at 70.5 h for `COc1ccc(-c2cccc(-c3ccn(CCN(C)C)n3)c2)nn1` ?
-3.58

cytotoxicity at 70.5 h for Cc1c(CN2Cc3nccn3CC2c2ccccc2)cnn1C (stereo not given) ?
-4.09

cytotoxicity at 70.5 h for CC(C)(C(=O)NCC1CCN(Cc2cccnc2)C1)c1ccccc1 (stereo not given) ?
-4.33

cytotoxicity at 70.5 h for Cn1cc(C2CCCN2C(=O)COCCOc2ccccc2)cn1 (stereo not given) ?
-4.67

cytotoxicity at 70.5 h for Cc1ccc(OCCNC(=O)C(C)n2cncn2)cc1 (stereo not given) ?
10.5

cytotoxicity at 70.5 h for `c1ccc(CN2C[C@@H]3OCCN(c4ncccn4)[C@@H]3C2)nc1` ?
-12.9

cytotoxicity at 70.5 h for CCC1CN(C(=O)c2ccccc2C#N)CCN1C(C)C (stereo not given) ?
14.9

cytotoxicity at 70.5 h for Cc1ccc(C(C)N(C)CCS(=O)(=O)CCC(N)=O)cc1 (stereo not given) ?
-6.4

cytotoxicity at 70.5 h for `Cc1ncc(C(=O)NCCOc2ccccc2F)c(C)n1` ?
7.2

cytotoxicity at 70.5 h for `CN1CCCN(C(=O)c2cnc(Cc3c(Cl)cccc3Cl)nc2O)CC1` ?
-3.04

cytotoxicity at 70.5 h for COc1cccc(C(C(=O)O)N2CCSCC2)c1F (stereo not given) ?
13

cytotoxicity at 70.5 h for CN(C)c1cc(C(=O)N2CCCCC2CNS(C)(=O)=O)ccn1 (stereo not given) ?
0.448

cytotoxicity at 70.5 h for CCN(C)S(=O)(=O)N1CCCC(c2nc(-c3ccccc3)c[nH]2)C1 (stereo not given) ?
14.3

cytotoxicity at 70.5 h for O=C(N1CCCC1)N1CCCC(c2nccn2Cc2ccncc2)C1 (stereo not given) ?
-8.72
